# assay_protocol: CCTE_Shafer_MEA_acute_network_burst_percentage: CCTE's Neural Acute Assay for Percentage of Network Bursts, Shafer Lab (AID 2284022);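 note: curves fitted for loss so actives lower network burst percentage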;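 for outcome: rat primary cortical neuron networks on multiwell MEA recorded 40 min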
# Method: CCTE_Shafer_MEA_acute assay is conducted using Axion Biosystems 48 well microelectrode array (MEA) plates and Maestro recording system. Each well of the MEA plate contains a grid of 16 microelectrodes embedded in the culture surface. Electrically active cells, such as neurons, can be cultured over the electrodes, and electrical activity in these cells can be recorded extracellularly. […]
The source made the active and inactive calls. Rule for the calls: active = hit-call score of the fitted dose curve at least 0.9, where 1 is the maximum; inactive = score below 0.9.
Tick one outcome: Y = active, N = inactive

Inquiry: Tell me the assay call for O=C(O)c1ccccc1C(c1ccc(O)cc1)c1ccc(O)cc1 please.
Reply text: N

Inquiry: Note, next up: CN(C)C=O
Reply text: N

Inquiry: Also check CCc1ccc(CCOc2ccc(CC3SC(=O)NC3=O)cc2)nc1 (stereo not given)
Reply text: N

Inquiry: Query Cc1cc(CCN2CCN(c3nsc4ccccc34)CC2)cc2c1NC(=O)CC2(C)C next
Reply text: N

Inquiry: Can you handle CCCCCCCCCCCCc1ccccc1S(=O)(=O)O next?
Reply text: N

Inquiry: Next compound up: CCCCCCCCCCCCN1CCCC1=O
Reply text: N

Inquiry: Further, for CC[C@H](c1ccc(O)cc1)[C@@H](CC)c1ccc(O)cc1 ?
Reply text: N

Inquiry: Now consider CC(=O)NC1(c2cccc(F)c2)CCN(CC[C@@]2(c3ccc(Cl)c(Cl)c3)CN(c3ccccc3)C(=O)CO2)CC1 and answer again.
Reply text: Y

Inquiry: And for NC(=O)N(O)[C@@H]1C=C[C@H](Oc2cccc(Oc3ccc(F)cc3)c2)C1 ?
Reply text: N

Inquiry: Now consider CCC(=C(c1ccc(O)cc1)c1ccc(OCCN(C)C)cc1)c1ccccc1 and answer again.
Reply text: N

----------
# Read-out: Tumor necrosis factor receptor 1 (TNFRSF1A), TNFRSF1A (gene 7132)
# assay_protocol: LTEA_HepaRG_TNFRSF1A: Life Technologies and Expression Analysis (LTEA) Assay for Tumor necrosis factor receptor 1 (TNFRSF1A) using HepaRG (AID 2283535)
# measurement_conditions: mRNA level, 48 h; actives raise or lower the signal
# Protocol: LTEA_HepaRG is a cell based, multiplexed-readout assay that uses HepaRG, a human liver cell line, with measurements taken at 48 hours after chemical dosing on a 96-well plate.LTEA_HepaRG_TNFRSF1A is one of 102 assay component(s) measured in the LTEA HepaRG cell culture assay. It is a marker of Cell proliferation, survival, death.Data from the assay component LTEA_HepaRG_TNFRSF1A was analyzed into 1 endpoint. […]
The source made the active and inactive calls. How the source made its calls: active means hit-call score of the fitted dose curve at least 0.9, where 1 is the maximum; inactive means score below 0.9.
Returns: one label drawn from y for active, n for inactive

Inquiry: What did the test return for CCCCCCCCOC(=O)CCCCCCCCC(=O)OCCCCCCCC ?
Reply text: n

Inquiry: What do you have for c1ccc2cc3c(ccc4ccccc43)cc2c1 ?
Reply text: n

Inquiry: # iterate: CCc1nn(C2CCCCC2)c2cc(C3(C#N)CCC(C(=O)O)CC3)ccc12 (stereo unspecified)
Reply text: n

Inquiry: Request: CC(C)(C)c1ccc(O)c(C(C)(C)C)c1
Reply text: y

Inquiry: Query N#C[C@@H]1CC(F)(F)CN1C(=O)CNC1CC2CCC(C1)N2c1ncccn1 (stereo partly specified) next
Reply text: n

Inquiry: # repeat for CCCCCCCCCCCCCCCS(=O)(=O)Oc1ccccc1
Reply text: n

----------
# Read-out: Urokinase-type plasminogen activator receptor (uPAR), PLAUR (gene 5329)
# assay_protocol: BSK_BE3C_uPAR: BioMAP Diversity Plus: BE3C Assay for Urokinase-type plasminogen activator receptor (uPAR) Biomarker Activity (AID 2283039)
# measurement_conditions: primary human bronchial epithelial cells; actives raise or lower the signal
# Procedure: BSK_BE3C is a cell-based, multiplexed-readout assay that uses bronchial epithelial cell, a human lung primary cell, with measurements taken at 24 hours after chemical dosing in a 96-well plate.BSK_BE3CAR is an assay component measured in the BSK_BE3C assay. It measures uPAR antibody related to regulation of gene expression using ELISA technology.Data from the assay component BSK_BE3CAR was analyzed into 1 assay endpoint. […]
Activity calls are given as the source filed them. How the source made its calls: active means hit-call score of the fitted dose curve at least 0.9, where 1 is the maximum; inactive means score below 0.9.
attribute_measured: AC50

Solved entries:
CC(C)(C)c1cccc(C(C)(C)C)c1O    inactive
OCCC(F)(F)C(F)(F)C(F)(F)C(F)(F)C(F)(F)C(F)(F)F    inactive
CCCOc1sc(C(=O)N2CCC(c3cc(CN)ccc3F)CC2)c(C)c1Br    7.36 µM (active)
CC1=C(/C=C/C(C)=C/C=C/C(C)=C/C(=O)O)C(C)(C)CCC1    inactive

Inquiry: I would be grateful if you could share the reported AC50 for NC(=O)N(O)[C@@H]1C=C[C@H](Oc2cccc(Oc3ccc(F)cc3)c2)C1 .
Reply text: inactive

Inquiry: Entry to check: CN1CCC[C@H]1c1cccnc1
Reply text: inactive
